# Substrate: F protein of respiratory syncytial virus (RSV-Long strain), on infectious virus (respiratory syncytial virus (RSV-Long strain)) (UniProt P12568)
# Sequence (P12568 26-574): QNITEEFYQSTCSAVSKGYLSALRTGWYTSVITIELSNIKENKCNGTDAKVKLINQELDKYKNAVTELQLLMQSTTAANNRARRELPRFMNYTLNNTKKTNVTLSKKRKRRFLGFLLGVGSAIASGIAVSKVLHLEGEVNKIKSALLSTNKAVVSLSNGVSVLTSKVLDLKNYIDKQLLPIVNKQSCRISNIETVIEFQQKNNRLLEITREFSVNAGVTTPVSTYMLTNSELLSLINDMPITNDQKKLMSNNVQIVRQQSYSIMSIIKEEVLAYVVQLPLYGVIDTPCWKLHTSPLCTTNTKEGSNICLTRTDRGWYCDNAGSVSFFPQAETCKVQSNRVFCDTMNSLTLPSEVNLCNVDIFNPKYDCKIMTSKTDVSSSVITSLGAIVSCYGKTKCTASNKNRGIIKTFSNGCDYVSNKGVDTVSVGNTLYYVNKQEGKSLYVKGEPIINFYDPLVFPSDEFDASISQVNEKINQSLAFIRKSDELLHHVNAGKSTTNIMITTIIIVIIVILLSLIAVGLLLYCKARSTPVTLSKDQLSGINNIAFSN
# experimentSummary: cell-based or functional assay
// Mean IC50 µg/ml, RSV microneutralization lookup, one value per entry
readoutKind: Mean IC50 µg/ml, RSV microneutralization (µg/mL)

>>> valuereported("Clone 21 (IgG) (antibody, V domains shown) VH: QVTLRESGPALVKPTQTLTLTCTFSGFSLSTPGMSVGWIRQPPGKALEWLADIWWDDKKHYNPSLKDRLTISKDTSKNQVVLKVTNMDPADTATYYCARDMIFNFYFDVWGQGTTVTVSS VL: DIQMTQSPSTLSASVGDRVTITCSLSSRVGYMHWYQQKPGKAPKLLIYDTFYLSSGVPSRFSGSGSGTEFTLTISSLQPDDFATYYCFQGSGYPFTFGGGTKVEIKR")
0.0231
>>> valuereported("Clone 29 (Fab) (Fab, V domains shown) VH: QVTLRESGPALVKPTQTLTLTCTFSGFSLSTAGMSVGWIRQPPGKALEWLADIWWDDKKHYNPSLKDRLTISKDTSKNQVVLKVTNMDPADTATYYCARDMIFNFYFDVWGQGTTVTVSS VL: DIQMTQSPSTLSASVGDRVTITCSASSRVGYMHWYQQKPGKAPKLLIYDTFFLDSGVPSRFSGSGSGTEFTLTISSLQPDDFATYYCFQGSGYPFTFGGGTKVEIK")
0.0414
>>> valuereported("Clone 26 (IgG) (antibody, V domains shown) VH: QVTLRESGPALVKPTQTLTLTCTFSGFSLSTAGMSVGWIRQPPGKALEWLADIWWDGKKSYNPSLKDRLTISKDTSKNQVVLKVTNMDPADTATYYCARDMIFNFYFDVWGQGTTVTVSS VL: DIQMTQSPSTLSASVGDRVTITCSLSSRVGYMHWYQQKPGKAPKLLIYDTMYQSSGVPSRFSGSGSGTEFTLTISSLQPDDFATYYCFQGSGYPFTFGGGTKVEIKR")
0.0376

Reference source: patent US20020098189A1
